readout-kind: melting point

The examples below pair each entry with its known result.
• C[Si](C)(C)C(CN)CC(=O)O (stereo not shown) = 199 to 201 °C
• C[Si]1(CC(CN)CC(=O)O)CCCCC1 (stereo not shown) = 140.5 to 143 °C

Your task in this section: give melting point for each listed record.
1. C[Si]1(C(CN)CC(=O)O)CCCCC1 (stereo not shown)
2. C[Si]1(CC(CN)CC(=O)O)CCCC1 (stereo not shown)

160 to 161.5 °C
133 to 135 °C

====

experimental-system: gabapentin receptor (Rattus norvegicus)
Construct: a gabapentin receptor was prepared from the brains of Wister rats; from tissue; host or cells: Wistar rat brain, prepared by the method of Suman-Chauhan et al. 1993
Sequence (P54290 25-944 limits assumed): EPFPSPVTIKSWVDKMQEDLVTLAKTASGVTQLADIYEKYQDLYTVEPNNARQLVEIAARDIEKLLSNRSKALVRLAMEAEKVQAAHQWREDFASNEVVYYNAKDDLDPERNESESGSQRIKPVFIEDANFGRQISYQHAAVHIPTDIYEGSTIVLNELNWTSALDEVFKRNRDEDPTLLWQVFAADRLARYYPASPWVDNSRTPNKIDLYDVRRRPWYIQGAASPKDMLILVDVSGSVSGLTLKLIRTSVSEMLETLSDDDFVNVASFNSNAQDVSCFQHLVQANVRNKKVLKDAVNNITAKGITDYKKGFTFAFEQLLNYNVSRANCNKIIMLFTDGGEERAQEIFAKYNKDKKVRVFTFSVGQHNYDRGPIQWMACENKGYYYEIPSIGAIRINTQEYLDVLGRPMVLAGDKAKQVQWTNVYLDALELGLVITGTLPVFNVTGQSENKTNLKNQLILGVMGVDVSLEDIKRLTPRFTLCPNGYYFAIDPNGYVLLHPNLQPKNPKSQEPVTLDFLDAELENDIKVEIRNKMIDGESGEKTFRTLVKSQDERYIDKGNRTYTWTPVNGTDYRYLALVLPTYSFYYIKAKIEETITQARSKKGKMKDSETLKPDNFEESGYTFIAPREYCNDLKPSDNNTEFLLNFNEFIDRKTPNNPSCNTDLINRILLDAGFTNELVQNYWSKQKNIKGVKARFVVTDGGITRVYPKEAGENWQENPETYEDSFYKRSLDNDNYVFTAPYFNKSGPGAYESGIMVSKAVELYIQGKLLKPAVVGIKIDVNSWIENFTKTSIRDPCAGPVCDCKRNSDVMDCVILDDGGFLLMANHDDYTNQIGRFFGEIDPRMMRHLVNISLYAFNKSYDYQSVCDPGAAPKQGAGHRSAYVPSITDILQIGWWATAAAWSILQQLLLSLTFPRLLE
Sequence (P54290 945-1091 limits assumed): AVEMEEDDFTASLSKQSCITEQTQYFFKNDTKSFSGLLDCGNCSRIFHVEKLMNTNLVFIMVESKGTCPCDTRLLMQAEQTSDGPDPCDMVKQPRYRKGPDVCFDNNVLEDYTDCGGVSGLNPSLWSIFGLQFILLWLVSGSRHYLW
method-summary: Binding to gabapentin receptor (inhibition of [3H]gabapentin binding)
condition-details: compound 1 μM; 0.02 μM [3H] gabapentin; receptor from brains of Wister rats
readout-kind: inhibition ratio (inhibition of binding of gabapentin) (%)
Give bare numbers, in %.

Known inhibition ratio (inhibition of binding of gabapentin) results, listed for orientation:
- CC(C)(C)[Si](C)(C)C(CN)CC(=O)O (stereo not shown): 13
- CCCCCCCC[Si](C)(C)C(CN)CC(=O)O (stereo not shown): 32

Go through the list and state inhibition ratio (inhibition of binding of gabapentin) for each entry.
1. C[Si](C)(C)CC(CN)CC(=O)O (stereo not shown) [Compound B]
2. C[Si](C)(C)C(CN)CC(=O)O (stereo not shown) [Compound A, 4-amino-3-(trimethylsilyl)butanoic acid]

28
35
